test system: IKBKAP; experiment: IKBKAP splicing assay (IKBKAP^FL and IKBKAP^Δ20 mRNA, qPCR); format: cell-based; conditions: IKBKAP^Δ20 mRNA decrease, 24 hours
parameter measured: IC50

[Q] Would you kindly share the measured IC50 for `Oc1cc(-c2cn[nH]c2)c(F)cc1-c1ccc(O[C@@H]2C[C@H]3CCC[C@@H](C2)N3)nn1` ?
[A] < 200 nM

###

system: A-673 cells; assay: A-673 cell viability; type: cell-based; conditions: Homo sapiens, A673
parameter measured: IC50

// solved cases for IC50 follow
[Q] Would you kindly share the measured IC50 for Oc1cc(C2C=NN=N2)ccc1-c1ccc(O[C@@H]2C[C@H]3CC[C@@H](C2)N3)nn1 (stereo partly drawn) ?
[A] 501 to 1000 nM

[Q] Would you kindly share the measured IC50 for `Oc1cc(-c2cn[nH]c2)ccc1-c1ccc(O[C@H]2C[C@H]3CCC[C@@H](C2)N3)nn1` ?
[A] > 1000 nM

---
[Q] Would you kindly share the measured IC50 for `Oc1cc(-c2cn[nH]c2)ccc1-c1ccc(O[C@@H]2C[C@H]3CCC[C@@H](C2)N3)nn1` ?
[A] 101 to 250 nM

The measured values listed here are drawn from patent US11326165B1.
